Can you tell me Herbicidal effect against [%] LOLRI for the items I'm about to list?
Tested on: Lolium rigidium
protocol.details: Pre-emergence herbicidal effect, greenhouse pot test
Type: in vivo
condition.description: 320 g a.i./ha, visual score after 3 weeks, 100% = plants have died, 0% = like control
Write the number in % without appending the unit.

So what does the record say about Herbicidal effect against [%] LOLRI for CC#Cc1cc(C)c(C2=C(OC(=O)OCC)C3(CCC(OCC)CC3)NC2=O)c(C)c1 (single isomer, unassigned) [Example P6] ?
100

So what does the record say about Herbicidal effect against [%] LOLRI for CC#Cc1cc(C)c(C2=C(O)C3(CCC(OCC)CC3)NC2=O)c(C)c1 (stereo not drawn) [Example D7] ?
100

So what does the record say about Herbicidal effect against [%] LOLRI for CC#Cc1cc(C)c(C2=C(O)C3(CCC(OCC)CC3)NC2=O)c(C)c1 (stereo not drawn) [Example S3] ?
100

* * *

Can you tell me Herbicidal effect against [%] STEME for the items I'm about to list?
Tested on: Stellaria media
protocol.details: Post-emergence herbicidal effect, greenhouse pot test
Assay type: in vivo
condition.description: 80 g a.i./ha, one-leaf stage, visual score after about 3 weeks, 100% = plants have died
Write the number in % without appending the unit.

So what does the record say about Herbicidal effect against [%] STEME for CC#Cc1cc(C)c(C2=C(OC(=O)OC)C3(CCC(OCC)CC3)NC2=O)c(C)c1 (stereo not shown) ?
100

So what does the record say about Herbicidal effect against [%] STEME for CC#Cc1cc(C)c(C2=C(O)C3(CCC(OCC)CC3)NC2=O)c(CC)c1 (stereo not shown) [Example S4] ?
10

So what does the record say about Herbicidal effect against [%] STEME for CC#Cc1cc(C)c(C2=C(OC(=O)OCC)C3(CCC(OCC)CC3)NC2=O)c(CC)c1 (stereo not shown) [Example P9] ?
40

So what does the record say about Herbicidal effect against [%] STEME for CC#Cc1cc(C)c(C2=C(O)C3(CCC(OCC)CC3)NC2=O)c(CC)c1 (stereo not shown) [Example D4] ?
10

So what does the record say about Herbicidal effect against [%] STEME for CC#Cc1cc(C)c(C2=C(O)C3(CCC(OCC)CC3)NC2=O)c(C)c1 (stereo not shown) [Example S3] ?
100

So what does the record say about Herbicidal effect against [%] STEME for CC#Cc1cc(C)c(C2=C(OC(=O)OCC)C3(CCC(OCC)CC3)NC2=O)c(CC)c1 (stereo not shown) [Example P10] ?
10

So what does the record say about Herbicidal effect against [%] STEME for CC#Cc1cc(C)c(C2=C(O)C3(CCC(OCC)CC3)NC2=O)c(C)c1 (stereo not shown) [Example D7] ?
20

* * *

Tested on: Stellaria media
protocol.details: Post-emergence herbicidal effect, greenhouse pot test
Type: in vivo
condition.description: 80 g a.i./ha, one-leaf stage, visual score after about 3 weeks, 100% = plants have died
endpoint.name: Herbicidal effect against [%] STEME (%)
Write the number in % without appending the unit.

So what does the record say about Herbicidal effect against [%] STEME for CC#Cc1cc(C)c(C2=C(OC(=O)C(C)C)C3(CCC(OCC)CC3)NC2=O)c(C)c1 (stereo not shown) ?
60

So what does the record say about Herbicidal effect against [%] STEME for CC#Cc1cc(C)c(C2=C(OC(=O)OCC)C3(CCC(OCC)CC3)NC2=O)c(C)c1 (single isomer, unassigned) [Example P6] ?
20

So what does the record say about Herbicidal effect against [%] STEME for CC#Cc1cc(C)c(C2=C(O)C3(CCC(OCC)CC3)NC2=O)c(C)c1 (stereo not shown) [Example D6] ?
90

So what does the record say about Herbicidal effect against [%] STEME for CC#Cc1cc(C)c(C2=C(OC(=O)OCC)C3(CCC(OCC)CC3)NC2=O)c(C)c1 (single isomer, unassigned) [Example P5] ?
100

Sourced from patent US20180282275A1
